- measurement.description: Solubility of the compound in DMSO/TFA
- Format: physicochemical
parameter.measured: solubility

compound="CN1C(=O)NC(=O)C(C(=O)NNC(=O)Nc2ccc([N+](=O)[O-])cc2)C1=O (stereo not given)" parameter_measured=solubility value_reported=Insoluble
compound="CN1C(=O)NC(=O)C(C(=O)NNC(=O)Nc2ccccc2)C1=O (stereo not given)" parameter_measured=solubility value_reported=Insoluble
compound="O=C(NNC(=O)C1C(=O)NC(=O)N(c2ccccc2)C1=O)Nc1ccc(Cl)cc1 (stereo not given)" parameter_measured=solubility value_reported=Insoluble
compound="CN1C(=O)NC(=O)C(C(=O)NNC(=O)Nc2ccc(O)cc2)C1=O (stereo not given)" parameter_measured=solubility value_reported=Insoluble
compound=CN1C(=O)C(C(=O)NNC(=O)Nc2ccc(Cl)cc2)C(=O)N(C)C1=O parameter_measured=solubility value_reported=Insoluble
compound="CN1C(=O)NC(=O)C(C(=O)NNC(=O)Nc2ccc(O)c([N+](=O)[O-])c2)C1=O (stereo not given)" parameter_measured=solubility value_reported=Insoluble
compound="N#Cc1ccc(NC(=O)NNC(=O)C2C(=O)NC(=O)N(c3ccccc3)C2=O)cc1 (stereo not given)" parameter_measured=solubility value_reported=Insoluble
compound="O=C(NNC(=O)C1C(=O)NC(=O)N(c2ccccc2)C1=O)Nc1ccc(Cl)c(Cl)c1 (stereo not given)" parameter_measured=solubility value_reported=Insoluble
compound="O=C(NNC(=O)C1C(=O)NC(=O)N(c2ccccc2)C1=O)Nc1ccc(O)c([N+](=O)[O-])c1 (stereo not given)" parameter_measured=solubility value_reported=Insoluble
compound="O=C(NNC(=O)C1C(=O)NC(=O)N(c2ccccc2)C1=O)Nc1cccc(O)c1 (stereo not given)" parameter_measured=solubility value_reported=Insoluble
compound=O=C1NC(=O)C(C(=O)NNC(=O)Nc2ccc(Cl)cc2)C(=O)N1 parameter_measured=solubility value_reported=Soluble
compound=O=C1NC(=O)C(C(=O)NNC(=O)Nc2ccc(O)c([N+](=O)[O-])c2)C(=O)N1 parameter_measured=solubility value_reported=Soluble
compound=O=C1NC(=O)C(C(=O)NNC(=O)Nc2ccccc2)C(=O)N1 parameter_measured=solubility value_reported=Soluble
compound=O=C1NC(=O)C(C(=O)NNC(=O)Nc2cccc(O)c2)C(=O)N1 parameter_measured=solubility value_reported=Soluble
compound=O=C1NC(=O)C(C(=O)NNC(=O)Nc2ccc([N+](=O)[O-])cc2)C(=O)N1 parameter_measured=solubility value_reported=Soluble

###

- measurement.description: Solubility of the compound in trifluoroacetic acid
- Format: physicochemical
parameter.measured: solubility

compound=O=C1NC(=O)C(C(=O)NNC(=O)Nc2ccc(Cl)cc2)C(=O)N1 value_reported=Soluble
compound=CN1C(=O)C(C(=O)NNC(=O)Nc2ccc(Cl)cc2)C(=O)N(C)C1=O value_reported=Insoluble
compound=CN1C(=O)C(C(=O)NNC(=O)Nc2ccc(Cl)c(Cl)c2)C(=O)N(C)C1=O value_reported=Insoluble
compound=O=C1NC(=O)C(C(=O)NNC(=O)Nc2ccc(F)cc2)C(=O)N1 value_reported=Soluble
compound="CN1C(=O)NC(=O)C(C(=O)NNC(=O)Nc2ccc([N+](=O)[O-])cc2)C1=O (stereo unspecified)" value_reported=Insoluble
compound="CN1C(=O)NC(=O)C(C(=O)NNC(=O)Nc2ccccc2)C1=O (stereo unspecified)" value_reported=Insoluble
compound=CN1C(=O)C(C(=O)NNC(=O)Nc2ccc(C#N)cc2)C(=O)N(C)C1=O value_reported=Insoluble
compound="CN1C(=O)NC(=O)C(C(=O)NNC(=O)Nc2cccc(O)c2)C1=O (stereo unspecified)" value_reported=Insoluble
compound=O=C1NC(=O)C(C(=O)NNC(=O)Nc2ccc(Cl)c(Cl)c2)C(=O)N1 value_reported=Soluble
compound="CN1C(=O)NC(=O)C(C(=O)NNC(=O)Nc2ccc(Cl)c(Cl)c2)C1=O (stereo unspecified)" value_reported=Insoluble
compound="O=C(NNC(=O)C1C(=O)NC(=O)N(c2ccccc2)C1=O)Nc1ccc(O)cc1 (stereo unspecified)" value_reported=Insoluble
compound="O=C(NNC(=O)C1C(=O)NC(=O)N(c2ccccc2)C1=O)Nc1ccc(O)c([N+](=O)[O-])c1 (stereo unspecified)" value_reported=Insoluble
compound=CN1C(=O)C(C(=O)NNC(=O)Nc2ccc(O)cc2)C(=O)N(C)C1=O value_reported=Insoluble
compound=CN1C(=O)C(C(=O)NNC(=O)Nc2ccccc2)C(=O)N(C)C1=O value_reported=Insoluble
compound="O=C(NNC(=O)C1C(=O)NC(=O)N(c2ccccc2)C1=O)Nc1cccc(O)c1 (stereo unspecified)" value_reported=Insoluble
compound=O=C1NC(=O)C(C(=O)NNC(=O)Nc2ccc(O)cc2)C(=O)N1 value_reported=Soluble
compound=CN1C(=O)C(C(=O)NNC(=O)Nc2cccc(O)c2)C(=O)N(C)C1=O value_reported=Insoluble
compound="N#Cc1ccc(NC(=O)NNC(=O)C2C(=O)NC(=O)N(c3ccccc3)C2=O)cc1 (stereo unspecified)" value_reported=Insoluble
compound=O=C1NC(=O)C(C(=O)NNC(=O)Nc2cccc(O)c2)C(=O)N1 value_reported=Soluble
compound=CN1C(=O)C(C(=O)NNC(=O)Nc2ccc(F)cc2)C(=O)N(C)C1=O value_reported=Insoluble
compound="CN1C(=O)NC(=O)C(C(=O)NNC(=O)Nc2ccc(C#N)cc2)C1=O (stereo unspecified)" value_reported=Insoluble

###

- measurement.description: Solubility of the compound in CHCl3/TFA
- Assay type: physicochemical
parameter.measured: solubility

compound="CN1C(=O)NC(=O)C(C(=O)NNC(=O)Nc2cccc(O)c2)C1=O (stereo not given)" value_reported=Insoluble
compound=O=C1NC(=O)C(C(=O)NNC(=O)Nc2ccccc2)C(=O)N1 value_reported=Soluble
compound=O=C1NC(=O)C(C(=O)NNC(=O)Nc2cccc(O)c2)C(=O)N1 value_reported=Soluble
compound=CN1C(=O)C(C(=O)NNC(=O)Nc2cccc(O)c2)C(=O)N(C)C1=O value_reported=Insoluble
compound="O=C(NNC(=O)C1C(=O)NC(=O)N(c2ccccc2)C1=O)Nc1cccc(O)c1 (stereo not given)" value_reported=Insoluble
compound="CN1C(=O)NC(=O)C(C(=O)NNC(=O)Nc2ccccc2)C1=O (stereo not given)" value_reported=Insoluble
compound=CN1C(=O)C(C(=O)NNC(=O)Nc2ccc(O)c([N+](=O)[O-])c2)C(=O)N(C)C1=O value_reported=Insoluble
compound=CN1C(=O)C(C(=O)NNC(=O)Nc2ccc(Cl)cc2)C(=O)N(C)C1=O value_reported=Insoluble
compound=O=C1NC(=O)C(C(=O)NNC(=O)Nc2ccc(Cl)c(Cl)c2)C(=O)N1 value_reported=Soluble
compound="CN1C(=O)NC(=O)C(C(=O)NNC(=O)Nc2ccc(Cl)c(Cl)c2)C1=O (stereo not given)" value_reported=Insoluble
compound=O=C1NC(=O)C(C(=O)NNC(=O)Nc2ccc([N+](=O)[O-])cc2)C(=O)N1 value_reported=Soluble
compound="O=C(NNC(=O)C1C(=O)NC(=O)N(c2ccccc2)C1=O)Nc1ccc(Cl)cc1 (stereo not given)" value_reported=Insoluble
compound="CN1C(=O)NC(=O)C(C(=O)NNC(=O)Nc2ccc(O)c([N+](=O)[O-])c2)C1=O (stereo not given)" value_reported=Insoluble
compound="O=C(NNC(=O)C1C(=O)NC(=O)N(c2ccccc2)C1=O)Nc1ccc(O)c([N+](=O)[O-])c1 (stereo not given)" value_reported=Insoluble
compound=CN1C(=O)C(C(=O)NNC(=O)Nc2ccc([N+](=O)[O-])cc2)C(=O)N(C)C1=O value_reported=Insoluble

###

- measurement.description: Solubility of the compound in trifluoroacetic acid
- Type: physicochemical
parameter.measured: solubility

compound="O=C(NNC(=O)C1C(=O)NC(=O)N(c2ccccc2)C1=O)Nc1ccccc1 (stereo not given)" parameter_measured=solubility value_reported=Insoluble
compound="O=C(NNC(=O)C1C(=O)NC(=O)N(c2ccccc2)C1=O)Nc1ccc(F)cc1 (stereo not given)" parameter_measured=solubility value_reported=Insoluble
compound="O=C(NNC(=O)C1C(=O)NC(=O)N(c2ccccc2)C1=O)Nc1ccc(Cl)cc1 (stereo not given)" parameter_measured=solubility value_reported=Insoluble
compound=O=C1NC(=O)C(C(=O)NNC(=O)Nc2ccc(O)c([N+](=O)[O-])c2)C(=O)N1 parameter_measured=solubility value_reported=Soluble
compound="CN1C(=O)NC(=O)C(C(=O)NNC(=O)Nc2ccc(F)cc2)C1=O (stereo not given)" parameter_measured=solubility value_reported=Insoluble
compound="CN1C(=O)NC(=O)C(C(=O)NNC(=O)Nc2ccc(O)c([N+](=O)[O-])c2)C1=O (stereo not given)" parameter_measured=solubility value_reported=Insoluble
compound=N#Cc1ccc(NC(=O)NNC(=O)C2C(=O)NC(=O)NC2=O)cc1 parameter_measured=solubility value_reported=Soluble
compound="O=C(NNC(=O)C1C(=O)NC(=O)N(c2ccccc2)C1=O)Nc1ccc([N+](=O)[O-])cc1 (stereo not given)" parameter_measured=solubility value_reported=Insoluble
compound=CN1C(=O)C(C(=O)NNC(=O)Nc2ccc([N+](=O)[O-])cc2)C(=O)N(C)C1=O parameter_measured=solubility value_reported=Insoluble
compound="CN1C(=O)NC(=O)C(C(=O)NNC(=O)Nc2ccc(O)cc2)C1=O (stereo not given)" parameter_measured=solubility value_reported=Insoluble
